// data source = ChEMBL document CHEMBL1201862

system: LOX IMVI; test: NCI tumour cell line growth inhibition, 48 h
The source made the active and inactive calls. Rule as the data show it: active = GI50 up to about 1.1 µM and inactive = higher.
observable: GI50

>  <smiles-code>
CC(C)/C(Cl)=N\OC(=O)Nc1ccc(F)cc1F

>  <observable>
GI50

>  <measurement>
1660 nM (inactive)

$$$$
>  <smiles-code>
COc1ccc(-c2oc3c(OC)c(OC)c(OC)c(O)c3c(=O)c2OC)cc1O

>  <observable>
GI50

>  <measurement>
93.5 nM (active)

$$$$

// moving on: another record for GI50
IN: Need GI50 of "O=[N+]([O-])c1ccc(/C=C/c2csnn2)cc1" , thanks.
OUT: > 100000 nM (inactive)

---

system: HOP-62; assay: NCI tumour cell line growth inhibition, 48 h
Active and inactive are the calls of the source. Rule as the data show it: active = GI50 up to about 1.1 µM and inactive = higher.
observable: GI50

IN: Given the compound Fc1cccc(F)c1C1SCc2nc3cc4ccccc4cc3n21 (configuration not stated) , what is its reported GI50?
OUT: 95.9 µM (inactive)

IN: Looking for the measured GI50 of "COc1ccc(NC(=S)c2ccc(CN3CCCCC3)s2)cc1" , can you help?
OUT: 20.6 µM (inactive)

IN: What value of measured GI50 is listed for CC(CC[C@@]1(O)OC2C[C@H]3[C@@H]4CC[C@H]5CC(OC6OC(CO)C(OC7OC(CO)C(O)C(OC8OCC(O)C(O)C8O)C7OC7OC(CO)C(O)C(O)C7O)C(O)C6O)[C@H](O)CC5(C)[C@H]4CCC3(C)C2[C@@H]1C)COC1OC(CO)C(O)C(O)C1O (some centres not stated) ?
OUT: 4.15 µM (inactive)

IN: Need GI50 of "O=C(O)Cc1cc(O)c(CC(=O)O)cc1O" , thanks.
OUT: > 100 µM (inactive)

IN: GI50 lookup needed for "C[C@@]1(CCCCCCCCCCc2ccccc2)C[C@@]2(C)OC(=O)C[C@H]2OO1" , thanks.
OUT: 1.57 µM (inactive)

IN: Look at this compound and give its reported GI50. "CON(C)C(=O)[C@H]1C[C@@]1(C)CO"
OUT: > 100 µM (inactive)

IN: If you can, please state the reported GI50 value of "CN(C)CCCNc1cc(O)c2c(c1O)C(=O)c1ccccc1C2=O" .
OUT: 11.1 µM (inactive)

---

system: Malme-3M; experiment: NCI tumour cell line growth inhibition, 48 h
Active and inactive are the calls of the source. Cut-off read from the data, not from the text of the source: active = GI50 up to about 1.1 µM and inactive = higher.
Below: a set of entries, each annotated with reported GI50.

>  <compound>
COC(=O)c1c2c(cc3c1CC1(Cc4cc5c(c(C=O)c4C1)CCCC5)C3)CCCC2 (stereo not drawn)

>  <tested-system>
Malme-3M

>  <GI50>
> 100 µM (inactive)

$$$$
>  <compound>
O=C(COC(=O)c1cccc2c(=O)c3ccccc3[nH]c12)Nc1ccc(S(=O)(=O)Nc2ncccn2)cc1

>  <tested-system>
Malme-3M

>  <GI50>
49.5 µM (inactive)

$$$$

IN: Report GI50 for "COc1cc(Br)cc2cc(-c3cn4ccsc4n3)c(=O)oc12" tested on Malme-3M.
OUT: 91.2 µM (inactive)

---

As shown below, each of these compounds has a reported GI50 value.
test system: CAKI-1; assay: NCI tumour cell line growth inhibition, 48 h
Activity calls are given as the source filed them. Cut-off read from the data, not from the text of the source: active = GI50 up to about 1.1 µM and inactive = higher.

Please review the following examples before continuing.
>  <compound>
CSc1snc2sc3c(Cl)nnnc3c12

>  <observable>
GI50

>  <measurement>
4.42 µM (inactive)

$$$$
>  <compound>
O=c1[nH]c(=O)n(C2COC(CO)C2O)cc1F (centres undefined)

>  <observable>
GI50

>  <measurement>
> 100 µM (inactive)

$$$$
>  <compound>
CSc1nc(Cl)c2c(n1)Sc1ncnn1C2O (centres undefined)

>  <observable>
GI50

>  <measurement>
12.7 µM (inactive)

$$$$

From here, focus on the item given below.
IN: Consider the compound "CON(C)C(=O)[C@H]1C[C@@]1(C)CO" and give its measured GI50.
OUT: > 100 µM (inactive)

---

system: MOLT-4; assay: NCI tumour cell line growth inhibition, 48 h
Calls of active or inactive are those of the source. No stated cut-off is given here; in the data, active = GI50 up to about 1.1 µM and inactive = higher.
observable: GI50

Worked cases, answers included:
>  <compound>
Nc1ncnc2c1ncn2C1C=CC(CP(=O)(O)O)C1 (configuration not stated)

>  <measurement>
> 100 µM (inactive)

$$$$
>  <compound>
O=C(O)C12CCCC(CCC1)C2

>  <measurement>
> 100 µM (inactive)

$$$$
>  <compound>
Nc1ccc(S(=O)(=O)NCc2nccs2)cc1

>  <measurement>
23.2 µM (inactive)

$$$$
>  <compound>
Oc1cn(-c2ccc(Cl)cc2)nc1-c1n[nH]c(=S)n1-c1ccccc1

>  <measurement>
62.7 µM (inactive)

$$$$

IN: Find GI50 (MOLT-4) for the entry "O[C@@]12Cc3c([nH]c4ccccc34)[C@@H]3Oc4c(-c5ccccc5)ccc5c4[C@@]31CCN(CC1CC1)[C@@H]2C5"
OUT: 3.07 µM (inactive)

IN: Which GI50 is reported with MOLT-4 for this entry: "O=C1O/C(=C(/Cl)c2c3ccccc3cc3ccccc23)c2ccccc21" ?
OUT: 7.53 µM (inactive)

IN: Given the entry CC(CN(C)C)C(=O)/C=C/c1ccc(Cl)c(Cl)c1 (configuration not stated) , what GI50 was observed with MOLT-4?
OUT: 2.67 µM (inactive)

---

system: OVCAR-8; experiment: NCI tumour cell line growth inhibition, 48 h
Calls of active or inactive are those of the source. Rule as the data show it: active = GI50 up to about 1.1 µM and inactive = higher.
Collected GI50 values appear next to each entry.

Some compounds with known GI50 results, for comparison:
>  <compound>
Nc1ncnc2c1ncn2C1C=CC(CP(=O)(O)O)C1 (stereo not drawn)

>  <GI50>
> 100 µM (inactive)

$$$$
>  <compound>
c1ccc(/N=C2\SC(c3ccccc3)CN2C23CC4CC(CC(C4)C2)C3)cc1 (stereo not drawn)

>  <GI50>
> 100 µM (inactive)

$$$$
>  <compound>
CCOC(=O)c1[nH]c2cccc3c2c1CC(Br)C3=O (stereo not drawn)

>  <GI50>
16.6 µM (inactive)

$$$$
>  <compound>
O=C(c1ccccc1)n1c2ccc(Br)cc2c2nc3ccccc3nc21

>  <GI50>
> 100 µM (inactive)

$$$$
>  <compound>
O=C(O)CNc1cc(-c2ccccc2)nc(NCC(=O)O)n1

>  <GI50>
> 100 µM (inactive)

$$$$

IN: What GI50 value was documented for this compound, "C=CC[C@H]1[C@H](O[Si](C)(C)C(C)(C)C)C=CC(=O)[C@@H]1CC(=O)OCC" ?
OUT: 16.4 µM (inactive)

IN: Entry OCCNC1c2cc(Cl)ccc2-c2c(Cl)cc(Cl)cc21 (stereo not drawn) has what GI50?
OUT: 28.6 µM (inactive)

IN: Please report the recorded GI50 for "O=C1O/C(=C(/Cl)c2c3ccccc3cc3ccccc23)c2ccccc21" .
OUT: 23.4 µM (inactive)

---

test system: COLO 205; test: NCI tumour cell line growth inhibition, 48 h
Active and inactive are the calls of the source. No stated cut-off is given here; in the data, active = GI50 up to about 1.1 µM and inactive = higher.
Each item that follows carries a reported GI50.

>  <compound>
c1cncc(CNCCN2CCNCC2)c1

>  <GI50>
> 100 µM (inactive)

$$$$
>  <compound>
Cc1ccc(-c2cc(-c3ccco3)c(C#N)c(=O)n2C2OC(OC(=O)c3ccccc3)C(OC(=O)c3ccccc3)C2OC(=O)c2ccccc2)cc1 (stereo not given)

>  <GI50>
> 10 µM (inactive)

$$$$
>  <compound>
CC1C(C#N)(C#N)C(C#N)=C(N)C1(C)[N+](=O)[O-] (stereo not given)

>  <GI50>
44.6 µM (inactive)

$$$$
>  <compound>
CCOC(=O)c1nnsc1NC(=O)NCCCCCCn1c(=O)n(CCCCCCNC(=O)Nc2snnc2C(=O)OCC)c(=O)n(CCCCCCNC(=O)Nc2snnc2C(=O)OCC)c1=O

>  <GI50>
> 100 µM (inactive)

$$$$
>  <compound>
CC(=O)[C@]1(C)[C@H](C)O[C@](C)(CO)[C@H]1O[Si](C)(C)c1ccccc1

>  <GI50>
56.6 µM (inactive)

$$$$
>  <compound>
O=C1NC2(CCCC2)C2CCCCC12O (stereo not given)

>  <GI50>
> 100 µM (inactive)

$$$$
>  <compound>
CCCC[C@@H](C)/C=C1\CN2CCC[C@H]2[C@@](C)(O)[C@@H]1O

>  <GI50>
> 100 µM (inactive)

$$$$
>  <compound>
CCCC[C@@H]1CCN2C[C@@H](O)[C@@H](O)[C@@H]2[C@H]1O

>  <GI50>
> 100 µM (inactive)

$$$$
>  <compound>
O=C(O)c1ccccc1/C=C1\Cc2ccccc2C1=O

>  <GI50>
48.4 µM (inactive)

$$$$
>  <compound>
O=C1CC(CC(=O)C2CCCCC2=O)C(=O)N1 (stereo not given)

>  <GI50>
> 100 µM (inactive)

$$$$

IN: State the recorded GI50 for this entry: CC(=O)C12C[C@](C#N)(N3CCCCCC3)C1C=Cc1ccccc12 (stereo not given in full)
OUT: > 100 µM (inactive)

IN: What does the data say about its GI50? Entry: COc1cccc2c1C(=O)c1c(O)c3c(c(O)c1C2=O)CC(O)(C(C)=O)CC3OC1OC(COC(C)=O)C(OC(C)=O)C(OC(C)=O)C1OC(C)=O (stereo not given)
OUT: 79.4 µM (inactive)

IN: May I ask what GI50 has been recorded for CC(CN(C)C)C(=O)/C=C/c1ccc(Cl)c(Cl)c1 (stereo not given) ?
OUT: 1.3 µM (inactive)

IN: Requested read-out: GI50. Entry: OC1(c2ccc(Cl)cc2)c2ccccc2C2=Nc3ccccc3CN21 (stereo not given)
OUT: > 69.2 µM (inactive)

IN: Dear colleague, I am looking for the recorded GI50 of the following compound: CON(C)C(=O)C(C)NC(=O)OC(C)(C)C (stereo not given)
OUT: > 100 µM (inactive)
